# TARGET: human kinase Mps-1 (Homo sapiens, UniProt P33981)
# Construct: N-terminally GST-tagged human full length recombinant Mps-1 kinase
# Sequence (P33981 whole entry): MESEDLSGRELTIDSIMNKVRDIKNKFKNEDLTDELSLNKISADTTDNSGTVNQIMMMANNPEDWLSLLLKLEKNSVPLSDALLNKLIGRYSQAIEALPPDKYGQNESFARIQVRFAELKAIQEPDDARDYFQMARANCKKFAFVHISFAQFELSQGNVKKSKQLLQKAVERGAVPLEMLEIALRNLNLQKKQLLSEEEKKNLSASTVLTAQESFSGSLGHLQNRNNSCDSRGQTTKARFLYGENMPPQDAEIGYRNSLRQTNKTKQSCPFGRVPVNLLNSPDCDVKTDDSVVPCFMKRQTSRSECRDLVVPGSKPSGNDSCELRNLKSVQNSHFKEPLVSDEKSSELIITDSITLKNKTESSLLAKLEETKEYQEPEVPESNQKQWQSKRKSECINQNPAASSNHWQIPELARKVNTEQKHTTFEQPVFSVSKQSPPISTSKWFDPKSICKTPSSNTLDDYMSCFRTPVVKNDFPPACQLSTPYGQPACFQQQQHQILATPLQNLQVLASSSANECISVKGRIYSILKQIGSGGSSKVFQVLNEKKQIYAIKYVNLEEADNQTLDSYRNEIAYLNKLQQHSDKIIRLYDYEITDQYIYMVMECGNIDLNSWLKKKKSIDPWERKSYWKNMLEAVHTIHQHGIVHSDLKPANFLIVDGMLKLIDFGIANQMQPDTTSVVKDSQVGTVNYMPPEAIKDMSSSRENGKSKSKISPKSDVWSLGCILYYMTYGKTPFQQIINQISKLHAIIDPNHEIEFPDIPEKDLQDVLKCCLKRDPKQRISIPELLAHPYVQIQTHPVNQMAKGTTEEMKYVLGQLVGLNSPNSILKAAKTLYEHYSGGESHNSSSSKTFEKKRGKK
# PROTOCOL DETAILS: Mps-1 kinase assay (HTRF)
# STATED CONDITIONS: lowATP; mean; read-out: Mps1 lowATP mean IC50
pIC50: −log10 of the molar value.
PROPERTY NAME: pIC50

[1] Cc1cc2nc(NCc3ccncc3)c3ncc(-c4ccc(C(=O)NC5CC5)c(Cl)c4)n3c2cc1C
[2] Cc1cc2nc(NCCCCO)c3ncc(-c4ccc(C(=O)NC5CC5)cc4)n3c2cc1C
[3] CC(C)CNc1nc2ccccc2n2c(-c3ccc(C(=O)Nc4ccc(CN5CCN(C)CC5)c(C(F)(F)F)c4)cc3)cnc12
[4] Cc1cc2nc(NCCCn3ccnc3)c3ncc(-c4ccc(C(=O)NC5CC5)c(Cl)c4)n3c2cc1C
Sort the entries above by pIC50, largest first. Answer by listing the labels in the order asked for.
2, 1, 4, 3
